Exercise: state measured EC50 for each of the compounds provided.
- targetOrTestSystem: 5-HT2A (Homo sapiens, UniProt P28223)
- Sequence (P28223 whole entry): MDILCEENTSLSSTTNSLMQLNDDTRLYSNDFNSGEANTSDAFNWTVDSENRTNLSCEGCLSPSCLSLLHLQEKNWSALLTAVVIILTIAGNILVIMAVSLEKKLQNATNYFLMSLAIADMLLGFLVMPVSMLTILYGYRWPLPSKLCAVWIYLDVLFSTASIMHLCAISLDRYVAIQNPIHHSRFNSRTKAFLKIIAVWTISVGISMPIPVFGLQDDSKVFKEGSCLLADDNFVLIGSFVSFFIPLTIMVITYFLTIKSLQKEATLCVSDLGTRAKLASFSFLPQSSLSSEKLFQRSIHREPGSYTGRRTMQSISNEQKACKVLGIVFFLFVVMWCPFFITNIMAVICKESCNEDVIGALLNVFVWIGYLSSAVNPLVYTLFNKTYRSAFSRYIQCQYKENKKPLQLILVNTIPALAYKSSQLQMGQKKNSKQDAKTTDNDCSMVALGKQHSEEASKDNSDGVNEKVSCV
- protocolDetails: cell-based
- Type: cell-based
- Set-up: expressed in transfected cells; host or cells: HEK293
- reportedConditions: IP-One EC50
One number for each entry, in nM.

compound | targetOrTestSystem | metricName | reportedMeasurement
COc1cc(I)c(OC)c2c1C(CN)C2 (stereo not drawn) | 5-HT2A (Homo sapiens, UniProt P28223) | EC50 | 10
CCc1cc(OC)c2c(c1OC)CC2CN (stereo not drawn) | 5-HT2A (Homo sapiens, UniProt P28223) | EC50 | 4

EC50 of COc1cc(CC(C)C)c(OC)c2c1C(CN)C2 (stereo not drawn) on 5-HT2A (Homo sapiens, UniProt P28223)? 2

* * *

- targetOrTestSystem: 5-HT2B (Homo sapiens, UniProt P41595)
- Sequence (P41595 whole entry): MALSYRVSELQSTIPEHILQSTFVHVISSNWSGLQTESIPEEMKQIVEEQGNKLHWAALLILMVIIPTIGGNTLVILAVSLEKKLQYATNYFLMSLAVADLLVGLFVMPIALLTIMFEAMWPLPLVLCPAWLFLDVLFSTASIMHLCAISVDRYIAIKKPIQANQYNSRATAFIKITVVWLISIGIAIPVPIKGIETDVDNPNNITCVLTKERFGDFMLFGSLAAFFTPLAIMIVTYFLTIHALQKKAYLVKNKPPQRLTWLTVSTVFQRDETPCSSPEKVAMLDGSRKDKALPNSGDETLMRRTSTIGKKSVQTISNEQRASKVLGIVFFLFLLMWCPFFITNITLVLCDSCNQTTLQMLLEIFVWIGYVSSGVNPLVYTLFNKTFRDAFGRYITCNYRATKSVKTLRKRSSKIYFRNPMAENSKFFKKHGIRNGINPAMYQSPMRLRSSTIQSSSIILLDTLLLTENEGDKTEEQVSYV
- protocolDetails: cell-based
- Assay type: cell-based
- Parameters: expressed in transfected cells; host or cells: HEK293
- reportedConditions: EC50
metricName: pEC50
Give bare numbers, as −log10 of the molar value.

molecule | pEC50
CCc1cc(OC)c2c(c1OC)CC2CN (stereo not drawn) [Compound 4] | 7.56
COc1cc(CC(C)C)c(OC)c2c1C(CN)C2 (stereo not drawn) [Compound 8] | 3.58

# ---- query molecule ----
Returns the measured pEC50 for the input molecule. Input: COc1cc(I)c(OC)c2c1C(CN)C2 (stereo not drawn) [Compound 2] 7.05

* * *

- targetOrTestSystem: 5-HT2C (Homo sapiens)
- Sequence (P28335 33-458): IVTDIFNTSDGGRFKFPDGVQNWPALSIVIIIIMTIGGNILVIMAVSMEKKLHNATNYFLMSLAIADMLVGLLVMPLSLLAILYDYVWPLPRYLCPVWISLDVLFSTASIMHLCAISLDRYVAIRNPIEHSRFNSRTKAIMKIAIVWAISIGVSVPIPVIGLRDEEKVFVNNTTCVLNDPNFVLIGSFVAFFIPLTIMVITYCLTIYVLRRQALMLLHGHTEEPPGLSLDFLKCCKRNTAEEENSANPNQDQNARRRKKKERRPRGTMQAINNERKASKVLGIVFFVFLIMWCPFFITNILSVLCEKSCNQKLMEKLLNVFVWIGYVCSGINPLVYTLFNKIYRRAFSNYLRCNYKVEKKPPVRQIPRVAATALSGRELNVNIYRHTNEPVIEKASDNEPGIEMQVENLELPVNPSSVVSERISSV
- protocolDetails: cell-based
- Parameters: expressed in transfected cells; host or cells: HEK293
- reportedConditions: EC50
metricName: EC50 (nM)
Give bare numbers, in nM.

The following compounds have reported results that may help.
compound | reportedMeasurement
COc1cc(I)c(OC)c2c1C(CN)C2 (stereo not drawn) [Compound 2] | 58
CCc1cc(OC)c2c(c1OC)CC2CN (stereo not drawn) [Compound 4] | 10.8

Field request: EC50 | item: COc1cc(CC(C)C)c(OC)c2c1C(CN)C2 (stereo not drawn) [Compound 8] 8.73
